MEASUREMENT LABEL: melting point

[in] May I ask what melting point has been recorded for COCCCC(=O)NNC(=O)N1Cc2ccccc2Oc2ccc(Cl)cc21 ?
[out] 142 to 144 °C

[in] May I ask what melting point has been recorded for O=C(O)C1=Cc2cccc(F)c2OC1C(F)(F)F (stereo not given) ?
[out] 198 to 210 °C

[in] May I ask what melting point has been recorded for COc1cc(Br)ccc1C12CC3CC(CC(C3)C1)C2 ?
[out] 159 to 160 °C

[in] May I ask what melting point has been recorded for CC(=O)NC1C(NC(=NC(=O)OC(C)(C)C)NC(=O)OC(C)(C)C)C=C(C(=O)OCCCO)OC1C(O)C1COC(C)(C)O1 (stereo not given) ?
[out] 86 to 88 °C

[in] May I ask what melting point has been recorded for CC(C)SC(F)(F)c1nnc(N)s1 ?
[out] 119 to 121 °C

[in] May I ask what melting point has been recorded for CC(C)(C)OC(=O)Nc1ccc(-c2ccc(OC(F)(F)F)cc2)cc1[N+](=O)[O-] ?
[out] 145 to 147 °C

[in] May I ask what melting point has been recorded for COCC#CC1=CC(C)(C)Oc2c(OC)cc(Cc3cnc(N)nc3N)cc21 ?
[out] 236 to 237 °C

[in] May I ask what melting point has been recorded for O=C(Nc1ccc(OC(F)(F)C(F)F)cc1)N1CC(c2ccccc2)C(c2ccc(OC(F)F)cc2)=N1 (stereo not given) ?
[out] 132 to 135 °C

[in] May I ask what melting point has been recorded for NC1=NCC(COc2cccc(C(F)(F)F)c2)O1 (stereo not given) ?
[out] 10 °C

[in] May I ask what melting point has been recorded for COc1cccc2c1CC(CC=O)C2=O (racemic) ?
[out] 71 °C

[in] May I ask what melting point has been recorded for CC(C)(C)OC(=O)NCC(=O)Nc1ccc2c(c1)-c1c(c(C(=O)C(C#N)C(=O)Nc3ccccc3)nn1-c1ccccc1)CS2 (stereo not given) ?
[out] 190 to 200 °C

[in] May I ask what melting point has been recorded for O=S(=O)(c1ccc(Cl)cc1)c1ccc(-c2ccccc2)cc1 ?
[out] 169 °C

[in] May I ask what melting point has been recorded for Cc1cc(O)ccc1NCCCCCCBr ?
[out] 142 to 144 °C

[in] May I ask what melting point has been recorded for Cn1cc(Oc2cc(Cl)ccc2Cl)c(=O)c(-c2cccc(C(F)(F)F)c2)c1 ?
[out] 162 to 164 °C

[in] May I ask what melting point has been recorded for CC(=O)C1CC(c2ccccc2)CCC1=O (stereo not given) ?
[out] 53 to 54 °C

[in] May I ask what melting point has been recorded for COCCNC(=O)c1cnc(C(=O)O)c(OC)c1 ?
[out] 160 to 161 °C

[in] May I ask what melting point has been recorded for CC1CN(c2ccccn2)CCN1Cc1nc2ccccc2[nH]1 (stereo not given) ?
[out] 151 to 153 °C

[in] May I ask what melting point has been recorded for O=C1N(Cc2cnc(N3CCCCC3)s2)c2ccccc2C12COc1cc3c(cc12)OCO3 (stereo not given) ?
[out] 195 to 197 °C

[in] May I ask what melting point has been recorded for CCn1cc(C(=O)O)c(=O)c2cc(F)c(N3CCC(NC(=O)OC(C)(C)C)C3)c(C)c21 (stereo not given) ?
[out] 184 to 188 °C

[in] May I ask what melting point has been recorded for COC(=O)c1[nH]c2ccc(OC)cc2c1SC ?
[out] 128 to 130 °C

[in] May I ask what melting point has been recorded for COc1cc(C=C[N+](=O)[O-])ccc1OCc1cccc2ccccc12 ?
[out] 120 to 123 °C

[in] May I ask what melting point has been recorded for O=C(CCc1ccc(CNCc2ccccc2)cc1)Nc1ccc(-c2ccc(Cl)cc2)cc1 ?
[out] 176 °C

[in] May I ask what melting point has been recorded for COc1ccc2ccccc2c1CC#N ?
[out] 95.2 to 95.6 °C

[in] May I ask what melting point has been recorded for COc1ccc(C(=O)c2cccc([N+](=O)[O-])c2)cc1OC ?
[out] 133 to 135 °C

[in] May I ask what melting point has been recorded for O=C(O)Cn1c(=O)oc2cc(-c3ccccc3)c(Cl)cc21 ?
[out] 200 to 203 °C

[in] May I ask what melting point has been recorded for Cc1cc(Cc2ccsc2)c(NC(=O)OCc2ccccc2)c(=O)n1CC(=O)O ?
[out] 153 to 155 °C

[in] May I ask what melting point has been recorded for OC(c1cc(-c2ccc(Cl)cc2)c(-c2ccc(Cl)cc2)[nH]1)(C(F)(F)F)C(F)(F)F ?
[out] 144 to 145 °C

[in] May I ask what melting point has been recorded for Cc1ccc(-c2cc(CN3C(=O)c4ccccc4C3=O)c(=O)n(CC(C)C)n2)cc1 ?
[out] 222 to 224 °C

[in] May I ask what melting point has been recorded for Nc1nc2ccccc2c2c1ncn2CCCCNC(=O)c1ccccc1 ?
[out] 210 to 212 °C

[in] May I ask what melting point has been recorded for CCOc1ccc2[nH]c(=O)n(-c3ccccc3Cl)c2c1 ?
[out] 97 °C

[in] May I ask what melting point has been recorded for COc1ccc(CNc2cc(Cn3c(Oc4cc(C)cc(C)c4)c(C(C)C)c(=O)[nH]c3=O)cc(Cl)n2)cc1 ?
[out] 223 to 225 °C

[in] May I ask what melting point has been recorded for COc1ccc(C(=O)c2noc(CC(=O)O)n2)cc1 ?
[out] 126 to 127 °C

[in] May I ask what melting point has been recorded for CCCc1c(OC(C(=O)O)c2ccc(Cl)cc2)ccc(C(C)=O)c1O (stereo not given) ?
[out] 163 to 164 °C

[in] May I ask what melting point has been recorded for O=C1c2ccccc2C(=O)N1CCN1CCN(C(c2ccc(F)cc2)c2ccc(F)cc2)CC1 ?
[out] 125 to 126 °C

[in] May I ask what melting point has been recorded for O=c1cc(-c2ccncc2)nc2n1CCN2CCCc1c[nH]c2ccccc12 ?
[out] 218 to 220 °C

[in] May I ask what melting point has been recorded for Cc1c(C)c2c(c(C)c1O)CCC(C)(C(=O)NN(C)C)O2 (stereo not given) ?
[out] 145 to 146 °C

[in] May I ask what melting point has been recorded for CCOCc1nc2c(N)nc3cc(-c4ccccc4)ccc3c2n1CCCN1CCCC1=O ?
[out] 199 to 203 °C

[in] May I ask what melting point has been recorded for CN1C(=O)C(NC(=S)Nc2ccccc2)N=C(c2ccccc2)c2ccccc21 (stereo not given) ?
[out] 209 to 211 °C

[in] May I ask what melting point has been recorded for CC1(C)Oc2ccsc2C(NC(=O)c2ccc(C(F)(F)F)cc2)C1O (stereo not given) ?
[out] 162 to 163 °C

[in] May I ask what melting point has been recorded for CCCCCCC(C(=O)O)n1ccc2cc(-c3cccc(OC)c3C(=O)O)ccc21 (stereo not given) ?
[out] 80 to 90 °C
